Give measured CENMA Obs (observed value) for each item. Keep answers brief.
# Test system: CENMA
# testMethodNotes: Example V: postemergence herbicidal activity of mixtures in forage crops, CENMA
# Format: in vivo, Centaurea maculosa (spotted knapweed)
# conditionsUsed: alone, 70 gae/ha, foliar, approximately 21 days
Structures can show the parent of a compound that is named as a salt.

Known CENMA Obs (observed value) results, listed for orientation:
compound="Nc1c(Cl)c(Cl)nc(C(=O)[O-])c1Cl.[K+] [Picloram K^+ Salt]" quantitykind="CENMA Obs (observed value)" obsvalue=50%
compound="CCCCOCCOC(=O)COc1nc(Cl)c(Cl)cc1Cl [Triclopyr Butotyl Ester, reference compound]" quantitykind="CENMA Obs (observed value)" obsvalue=45%
compound="O=C(O)COc1ccc(Cl)cc1Cl [2,4-D DMA Salt, reference compound]" quantitykind="CENMA Obs (observed value)" obsvalue=50%

# input compound: CCCCCCC(C)OC(=O)COc1nc(F)c(Cl)c(N)c1Cl (stereo not shown) ; wanted: its CENMA Obs (observed value)
0%

This collection of values is drawn from patent US8912120B2.
